system_under_test: human CCR5 chemokine receptor (Homo sapiens, UniProt P51681)
Construct: expressed in transfected cells
Sequence (P51681 whole entry): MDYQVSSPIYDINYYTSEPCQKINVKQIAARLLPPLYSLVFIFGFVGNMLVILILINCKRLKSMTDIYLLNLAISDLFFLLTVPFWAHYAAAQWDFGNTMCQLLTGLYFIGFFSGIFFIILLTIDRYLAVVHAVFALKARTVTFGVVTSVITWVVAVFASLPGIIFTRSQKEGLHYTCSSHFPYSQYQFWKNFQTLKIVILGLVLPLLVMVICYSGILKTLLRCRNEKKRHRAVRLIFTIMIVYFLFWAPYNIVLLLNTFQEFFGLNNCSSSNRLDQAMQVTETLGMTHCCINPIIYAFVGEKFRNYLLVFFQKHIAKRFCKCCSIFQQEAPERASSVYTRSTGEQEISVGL
measurement_notes: Inhibition of [125I]-RANTES binding to CCR5/CHO cells (CCR5 antagonistic activity)
measurement_setup: 40 min, test compound 1 μM, [125I]-RANTES as ligand, room temperature, read-out: Binding Inhibitory Ratio (%)
value_type: inhibition at 1 µM (%)

1. CCCCOCCOc1ccc(-c2ccc3c(c2)C=C(C(=O)Nc2ccc(SCCn4cnnc4)cc2)CCN3CC(C)C)cc1: 100
2. CCCCOCCOc1ccc(-c2ccc3c(c2)C=C(C(=O)Nc2ccc([S+]([O-])Cc4nnnn4CC)cc2)CCN3CC(C)C)cc1 (stereo not drawn): 94
3. CCCCOCCOc1ccc(-c2ccc3c(c2)C=C(C(=O)Nc2ccc([S+]([O-])Cc4nc(C)cc(C)n4)cc2)CCN3CC(C)C)cc1 (stereo not drawn): 98
